- test.target: Neuronal acetylcholine receptor subunit alpha-7 (Homo sapiens, UniProt P36544)
- Sequence (P36544 whole entry): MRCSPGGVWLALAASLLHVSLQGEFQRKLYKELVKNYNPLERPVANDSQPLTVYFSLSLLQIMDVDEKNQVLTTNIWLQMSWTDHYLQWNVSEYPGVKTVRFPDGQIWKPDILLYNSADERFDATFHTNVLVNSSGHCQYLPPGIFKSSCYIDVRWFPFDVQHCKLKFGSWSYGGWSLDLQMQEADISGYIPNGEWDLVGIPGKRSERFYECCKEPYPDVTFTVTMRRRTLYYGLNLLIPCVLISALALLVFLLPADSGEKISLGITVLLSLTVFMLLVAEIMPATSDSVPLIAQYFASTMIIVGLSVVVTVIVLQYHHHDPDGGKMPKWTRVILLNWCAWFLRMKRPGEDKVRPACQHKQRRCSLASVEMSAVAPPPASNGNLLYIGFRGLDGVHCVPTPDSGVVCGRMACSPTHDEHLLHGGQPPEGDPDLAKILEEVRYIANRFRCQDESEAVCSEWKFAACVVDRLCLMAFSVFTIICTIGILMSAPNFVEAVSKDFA
- assay.procedure: Binding affinity to human alpha7 nAChR
pKi: −log10 of the molar value.
readout.type: pKi

chem.smiles | measured.result
O=C(Oc1ccc(Br)cc1)N1CCN2CCC1CC2 | 7.85

###

- test.target: Neuronal acetylcholine receptor subunit alpha-7 (Homo sapiens, UniProt P36544)
- assay.procedure: Non competitive antagonist activity at human alpha7 nAChR expressed in Xenopus oocyte assessed as inhibition of ACh-induced current by voltage clamp method
- Format: functional
readout.type: IC50

chem.smiles | measured.result
C[C@H]1CN2CCCC[C@@H]2CN1C(=O)c1ccc2c(c1)OCCO2 | 6.1 µM
